Where do these numbers come from? They come from ChEMBL document CHEMBL4513216.

test: Toxicity liver stage against HepG2, at 10uM; type: cell-based; set-up: test concentration 10 uM, cell line HepG2-A16-CD81EGFP; conditions: human, HepG2-A16-CD81EGFP cells; read-out: INHIBITION

| compound | cytotoxicity at 10 µM [%] |
| --- | --- |
| Cc1ccc(CN2CCOCS2(=O)=O)cc1F | 9.52 |
| Cc1ccc(-c2nc(CC(=O)NCC3CCOC3)cs2)o1 (configuration not stated) | -43 |
| C[C@H](NC(=O)C1CC1)c1nc2cc(-c3ccc(F)cc3)ncn2n1 | -23 |
| COC(=O)c1sccc1S(=O)(=O)N1CCC(Oc2cnccn2)CC1 | 9.32 |
| CCC1=N[C@@]2(CC[C@@H]3CN(C(=O)NCC(C)C)C[C@@H]32)C(=O)N1CCOC | 10.3 |
| O=C(NCCC1CCN(CC(F)(F)F)CC1)C1CCCOC1 (configuration not stated) | 1.51 |
| Cn1cc(CN2CC[C@H](O)[C@@H]2Cc2ccncc2)cn1 | 3.6 |
| Cc1cc(NC(=O)NC2CCCc3c2cnn3CCO)n(C)n1 (configuration not stated) | -15.7 |
| O=C(O)c1csc(S(=O)(=O)Nc2cccc(OCC(F)(F)F)c2)c1 | -13.1 |
| CC[C@H]1CN2CC[C@H]1C[C@@H]2CNCc1ccc(N(C)C)cc1 | -5.66 |
| Cc1cccc(C(=O)N(C)CC(=O)N2CCCC2)c1C | -0.291 |
| CC(O)CN(C)c1cc(C(F)(F)F)nc(-c2cccnc2)n1 (configuration not stated) | -6.68 |
| CCNc1cc2c(nn1)CCN(C(=O)Cc1ccc3c(c1)CCO3)C2 | 1.42 |
| CCN1CC(C(=O)N2CCc3cc(C(N)=O)n(C)c3C2)CC1=O (configuration not stated) | -47.5 |
| CN1CCCC(c2cccc(-c3cccc(Cl)c3)n2)C1 (configuration not stated) | -9.58 |
| COc1ccc(Cl)c(NCC(=O)NCC(=O)N2CCCC2)c1 | -5.7 |
| COc1c(CNCCC(=O)NC2CCCCC2)c(C(C)C)nn1C | -10.4 |

* * *

assay: Toxicity liver stage against HepG2, at 10uM; format: cell-based; parameters: test concentration 10 uM, cell line HepG2-A16-CD81EGFP; details: human, HepG2-A16-CD81EGFP cells; read-out: INHIBITION

| compound | cytotoxicity at 10 µM [%] |
| --- | --- |
| CNC(=O)c1c(C)cccc1NCC(=O)Nc1cc(C)nn1C | -0.503 |
| Cc1nc(NC(=O)C(C)S(C)(=O)=O)sc1Cc1ccccc1F (stereo not drawn) | 9.8 |
| CCOCC(=O)N1C[C@@H]2CCN(c3cnccn3)C[C@@H]2C1 | 1.2 |
| Cc1cccc(CS(=O)(=O)NCC(O)Cc2ccccc2)c1 (stereo not drawn) | -19.5 |
| Cc1cc(CN(C)C(=O)c2ccc(F)c(C(F)(F)F)c2)no1 | -10 |
| CCCn1cc(C(=O)NCCC(=O)NC2CCCCC2)c(C)n1 | -3.31 |
| NC(=O)COc1ccc(CNCc2c(F)cccc2F)cc1 | -5.03 |
| CO[C@@H]1CCN(S(=O)(=O)c2cn(C)cn2)[C@H]1Cc1ccncc1 | 4.05 |
| CNC(=O)CCS(=O)(=O)Cc1cc(Cl)c2c(c1)OCCO2 | -4.89 |
| CSC1(CNC(=O)CCc2ccc(Cl)s2)CCOCC1 | 6.45 |
| N#Cc1ccccc1N1CCCN(C(=O)CCc2ccsc2)CC1 | -8.25 |
| COc1ccc2c(c1)CC(NC(=O)NCc1cccs1)CO2 (stereo not drawn) | 7.52 |
| COc1ccccc1-c1nccnc1C1CCN(C(C)=O)CC1 | -1.69 |
| CC(C)=CCS(=O)(=O)Cc1ccn(-c2cccc(F)c2)n1 | 6.37 |
| Cc1cnc(C)c(N2CCC(C(=O)O)(n3ccc(C(C)(C)C)n3)CC2)n1 | 20.4 |
| N#Cc1c(C2CCOC2)cc(-c2ccc(N3CCCCC3)cc2)nc1N (stereo not drawn) | -8.78 |
| CCS(=O)(=O)N1CCn2c(COCC3CCOCC3)cnc2C1C (stereo not drawn) | 11 |
| CCN(C)c1ncnc2c1CCN(C(=O)c1ccoc1C)CC2 | -0.675 |
| Cc1cnn(CC2CN(CC(=O)Nc3nccs3)CCO2)c1 (stereo not drawn) | -7.51 |
| CCc1nc2n(n1)CCCC2NC(=O)Nc1ccc(SC)c(F)c1 (stereo not drawn) | 5.08 |
| Cc1nccn1-c1nccnc1C1CCCN(C2CCCC2)C1 (stereo not drawn) | -0.55 |
| CNc1nc(C(=O)N2CCCC(c3nccn3CC3CCC3)C2)cs1 (stereo not drawn) | -16.7 |
| Cc1nc(C2CN(C)CCO2)cc(N2CCC(CO)CC2)n1 (stereo not drawn) | -34 |
| N#Cc1nccnc1NCCC1CCN(CC(F)(F)F)CC1 | 1.6 |
| Cc1cnc(C2(C)CCN(Cc3csc(C)n3)CC2)s1 | -16.1 |
| c1cncc(OC[C@@H]2CCC[C@@]23CN(Cc2nccs2)CCO3)c1 | -63.3 |
| CCCc1nc(C(C)(C)NC(=O)c2ccnn2C)no1 | -10.5 |
| Cc1nn(C(C)C)c2cnn(CC(=O)N3CCSCC3)c12 | 5.86 |
| COCC(=O)NC[C@H]1C[C@@H]2CCN1C[C@@H]2c1cc(-c2cccs2)nn1C | 1.23 |
| CCNC(=O)C1CCN(Cc2ccccc2OCC(F)(F)F)CC1 | -3.03 |
| NC(=O)CN1CCCCC1c1ccc(-n2ccnc2)nc1 (stereo not drawn) | 1.6 |
| CN1CC=C(c2noc(CCC(=O)N3CCc4ccccc4C3)n2)CC1 | 6.97 |
| CCOCC1CN(C(=O)Cc2ccccn2)Cc2cnn(CC)c21 (stereo not drawn) | -68.9 |
| C1CCC(OCCN2CCN(CCOC3CCCCC3)CC2)CC1 | -0.434 |
| COc1cccc(CNC(=O)c2ccccc2-n2cc(CN)cn2)c1 | -21 |
| COCc1nn(C(C)C)c2c1CCN(Cc1ccc(C)s1)C2 | -5.82 |
| Cc1nnc(CN2C[C@@H]3CC[C@H]2CN(C2Cc4ccccc4C2)C3)o1 | -1.06 |
| CCc1ncc(CN(C)C2CCN(C(C)C)CC2)cn1 | -3.91 |

* * *

assay: Toxicity liver stage against HepG2, at 10uM; assay type: cell-based; set-up: test concentration 10 uM, cell line HepG2-A16-CD81EGFP; conditions: human, HepG2-A16-CD81EGFP cells; read-out: INHIBITION

| molecule | result units | cytotoxicity at 10 µM |
| --- | --- | --- |
| O=C(CNC(=O)C1CC1)Nc1c(F)cccc1Oc1ccccc1 | % | 0.99 |
| Cc1cc2nc(SCC(=O)N3CCOCC3)n(CCC(C)C)c(=O)c2[nH]1 | % | 10.8 |
| CC(C)c1nnc2n1CCN(C(=O)c1ccnc(-n3ccnc3)c1)C2 | % | -29 |
| Cc1nnc2n1CCN(Cc1nc3ccccc3o1)C2 | % | -6.48 |
| CCc1cccc(OC2CN(C(=O)[C@@H](N)CCSC)C2)c1 | % | 0.684 |
| CN(C)c1ccc(CNC(=O)NCCc2cccs2)cn1 | % | -2.8 |
| Cc1cc(NC(=O)CCN(CC2CCOC2)C2CC2)no1 (stereo unspecified) | % | -0.794 |
| CCOCc1nc2c(c(N3CCN4CCCC4C3)n1)CCNCC2 (stereo unspecified) | % | 0.394 |
| O=C(C1NCCc2[nH]cnc21)N1CCC2(CC1)CNc1ccccc12 (stereo unspecified) | % | 1.04 |
| COc1cc2ccccc2cc1C(=O)N1CCCC(c2nncn2C)C1 (stereo unspecified) | % | -6.9 |
| O=C1CC[C@H]2[C@@H](CCN2Cc2ccco2)N1 | % | 2.82 |
| CN(C)CC(=O)N1CCc2sc(C(=O)NCC3CC3)cc21 | % | 1.68 |
| N[C@@H]1c2ccccc2C2(CCN(C(=O)c3ccc(Cl)cn3)CC2)[C@H]1O | % | -2.21 |
| CSc1ccc(-c2nc(CN3CCC(CN)C3)c(C)o2)cc1 (stereo unspecified) | % | -2.65 |
| COc1ccc(N2CCN(Cc3noc(CC(C)C)n3)C(C)C2=O)cc1 (stereo unspecified) | % | 4.11 |
| Cc1cc(C)n(C2CN(c3ncnc4c3CCNCC4)C2)n1 | % | 7.99 |
| O[C@@]1(CNCC2(Cn3ccnc3)CC2)CCCN2CCCC[C@@H]21 | % | 5.09 |
| COc1ccc(CN2CCCC2Cn2nc(C)nc2C)cc1F (stereo unspecified) | % | 2.89 |
| O=C(NC1CCN(c2snc3ccccc23)CC1)C1CCC1 | % | 4.5 |
| Cc1noc(C)c1CN(C)C(=O)C1(N)CCCCC1 | % | 6.67 |
| O=C(CN1CCCCC1)Nc1cc(C(F)(F)F)ccc1-n1cccc1 | % | 5.24 |
| O=C(O)c1cnc(OCC2CC2)c(Cl)c1 | % | -5.38 |
| Cc1ccc(NC2CCN(C(=O)CCc3cscn3)CC2)nn1 | % | -9.2 |
| CN1CCN(Cc2cccnc2)Cc2cccnc21 | % | -76.9 |
| O=C(c1cc(=O)n(-c2ccccc2)[nH]1)N1CCOC(C(F)(F)F)C1 (stereo unspecified) | % | 3.32 |
| COCCN1C[C@H]2CN(C(=O)c3ccno3)CCN2C1=O | % | 1.29 |
| Cc1nc(C)c(C(=O)N2CCC(Nc3cccnc3)CC2)s1 | % | -6.75 |
| Cc1ccc(NC2CCN(C(=O)c3ccco3)CC2)nn1 | % | -14.3 |
| CC(C)N1CCC(Cc2cc(-c3cc(F)ccc3C(=O)O)ncn2)C1 (stereo unspecified) | % | 7.49 |
| CCn1nc(C)c2nc(C)nc(N(C)Cc3ccco3)c21 | % | 4.23 |
| Cc1nn(C)c(C)c1-c1cc(-c2cnn(C)c2C2CC2)c(C#N)c(N)n1 | % | 18 |
| Cc1nc(C)n(CC2CN(S(C)(=O)=O)Cc3nccn3C2)n1 (stereo unspecified) | % | -140 |
| Cn1cnnc1C1CCCN(C(=O)c2cc(Cl)cc(Cl)c2)C1 (stereo unspecified) | % | -9.91 |
| CC(C)n1cnnc1CNC(=O)c1cnn(-c2ccccc2)c1 | % | 11.9 |
| CC(NC(=O)Nc1ccc(N2CCCC2)nc1)c1nncn1C (stereo unspecified) | % | -12.6 |
| Cc1ncsc1CN1Cc2cn(C)nc2C(COCC2CC2)C1 (stereo unspecified) | % | -67.3 |
